System: HBsAg
Assay: HBsAg assay: inhibition of HBsAg in HepG2.2.15 cells (CLIA immunoassay of supernatant)
Format: cell-based, hepatitis B virus (HBV)
Details: Hepatitis B virus, HepG2.2.15, 144 h, read-out: sAg EC50, HepG2.2.15 cells; supernatant collected at day 6 after exposure; HBsAg chemiluminescence immunoassay
pEC50: −log10 of the molar value.
property_name: pEC50

[[record]]
molecule = "CCOc1c2c([nH]c(=O)c1C(=O)O)-c1cc(OC)c(OCCCOC)cc1CC2C(C)C (centres unmarked)"
test_system = "HBsAg"
property_name = "pEC50"
experimental_value = 5.77

[[record]]
molecule = "COCCCOc1cc2c(nc1OC)-c1[nH]c(=O)c(C(=O)O)c(O)c1C(C(C)C)C2 (centres unmarked)"
test_system = "HBsAg"
property_name = "pEC50"
experimental_value = 8.40

[[record]]
molecule = "COCCCOc1cc2c(nc1Cl)-c1[nH]c(=O)c(C(=O)O)c(O)c1C(C(C)(C)C)C2 (centres unmarked)"
test_system = "HBsAg"
property_name = "pEC50"
experimental_value = 9.00

[[record]]
molecule = "COCCCOc1cc2c(nc1NCCOC)-c1[nH]c(=O)c(C(=O)NCCOC)c(O)c1C(C(C)C)C2 (centres unmarked)"
test_system = "HBsAg"
property_name = "pEC50"
experimental_value = 4.89

[[record]]
molecule = "COCCCOc1cc2c(nc1OC)-c1[nH]c(=O)c(C(=O)NO)cc1C(C(C)(C)C)C2 (centres unmarked)"
test_system = "HBsAg"
property_name = "pEC50"
experimental_value = 8.30

[[record]]
molecule = "COCCCOc1cc2c(nc1CCOC)-c1[nH]c(=O)c(C(=O)O)c(O)c1C(C(C)C)CO2 (centres unmarked)"
test_system = "HBsAg"
property_name = "pEC50"
experimental_value = 5.92

[[record]]
molecule = "COCCCOc1cc2c(cc1OC)-c1[nH]c(=O)c(C(=O)O)c(O)c1C(C)(C(C)C)C2 (centres unmarked)"
test_system = "HBsAg"
property_name = "pEC50"
experimental_value = 7.24

[[record]]
molecule = "COCCCOc1cc2c(nc1OC)-c1[nH]c(=O)c(C(=O)O)cc1C(C(C)C)C2 (centres unmarked)"
test_system = "HBsAg"
property_name = "pEC50"
experimental_value = 8.52


---

Test system: HBsAg
Experiment: HBsAg assay: inhibition of HBsAg in HepG2.2.15 cells (CLIA immunoassay of supernatant)
Format: cell-based, hepatitis B virus (HBV)
Details: Hepatitis B virus, HepG2.2.15, 144 h, read-out: sAg EC50, HepG2.2.15 cells; supernatant collected at day 6 after exposure; HBsAg chemiluminescence immunoassay
pEC50: −log10 of the molar value.
Just so you know, the groups by pEC50 go like this: L (below 6), M (6 to below 7), H (7 or more)

[[record]]
compound = "COCCCOc1cc2c(cc1Cl)-c1[nH]c(=O)c(C(=O)O)cc1C(C)(C(C)C)C2 (stereo not shown)"
classification = "H"

[[record]]
compound = "COCCCOc1cc2c(cc1OC)-c1nc(Cl)c(C(=O)O)cc1C(C(C)C)C2 (stereo not shown)"
classification = "M"

[[record]]
compound = "COCCCOc1cc2c(cc1OC)-c1[nH]c(=O)cc(O)c1C(C(C)C)C2 (stereo not shown)"
classification = "M"

[[record]]
compound = "COCCCOc1cc2c(cc1OC)-c1[nH]c(=O)c(C(=O)O)c(OCCN(C)C)c1C(C(C)C)C2 (stereo not shown)"
classification = "L"

[[record]]
compound = "COCCCOc1cc2c(nc1OC)-c1[nH]c(=O)c(C(=O)O)c(OC)c1C(C(C)(C)C)C2 (stereo not shown)"
classification = "M"

[[record]]
compound = "COCCCOc1cc2c(cc1CCOC)-c1[nH]c(=O)c(C(=O)O)c(O)c1[C@H](C(C)C)CO2"
classification = "M"

[[record]]
compound = "COCCCOc1cc2c(nc1OC)-c1[nH]c(=O)c(C(N)=O)cc1C(C(C)(C)C)C2 (stereo not shown)"
classification = "H"

[[record]]
compound = "COCCCOc1cc2c(cc1Cl)-c1[nH]c(=O)c(C(=O)O)cc1[C@H](C(C)C)CO2"
classification = "M"

[[record]]
compound = "CNc1nc2c(cc1OCCCOC)CC(C(C)C)c1cc(C(=O)O)c(=O)[nH]c1-2 (stereo not shown)"
classification = "H"

[[record]]
compound = "COCCCOc1cc2c(cc1OC)-c1[nH]c(=O)c(-c3ncn[nH]3)c(O)c1C(C(C)C)C2 (stereo not shown)"
classification = "H"

[[record]]
compound = "COCCCOc1cc2c(cc1OC)-c1nc(Cl)c(C(=O)O)c(O)c1C(C(C)C)C2 (stereo not shown)"
classification = "L"


These measurements were taken from patent US11702427B2.
